Please provide measured binding signal for the entries that follow.
- TARGET_OR_SYSTEM: OsWOX13 (Oryza sativa, UniProt Q5QMM3 1-267)
- Sequence: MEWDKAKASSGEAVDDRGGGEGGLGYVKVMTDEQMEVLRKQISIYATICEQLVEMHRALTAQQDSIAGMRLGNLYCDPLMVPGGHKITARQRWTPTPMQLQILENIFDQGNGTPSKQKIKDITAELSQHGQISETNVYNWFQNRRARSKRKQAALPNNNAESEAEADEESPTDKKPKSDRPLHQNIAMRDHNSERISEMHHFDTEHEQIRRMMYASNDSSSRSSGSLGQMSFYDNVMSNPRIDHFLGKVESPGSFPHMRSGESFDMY
- METHOD_NOTES: protein-binding microarray (RPBM); PBS, 2% BSA, 51.3 ng/ul salmon testes DNA, 50 uM zinc acetate, 200 nM TF, 25 C, 1 h; high values mean tight binding
- DETAILS: protein: recombinant; tags: N-terminal polyhistidine and DsRed monomer fusion (pET32a); label: CyDye5-dUTP incorporated in the synthesized complementary strand; 3' TTTTT single-stranded linker to array surface; dsDNA, one strand shown
The full ranking holds about 35,000 sequences; the median of “fluorescence intensity (a.u.)” is about 10,000, and the highest 2% start at about 52,000. The list comes from a sample in which the highest values are over-represented; it also holds close analogues and randomly drawn sequences.

For every listed record, write down its binding signal.
1. GTAGATAATTAAATCGGATTAGCATTAGATAATCAAGCAACGGAGTCACCTAGTGCAG
2. ACTCCTGACTTGATTGGCAGTGAGTTGCTCATCTGCCTAGCGGAGTCACCTAGTGCAG
3. CCAAACAATTTCAGTTTCATCTAAATTGGAGTGGAGCTGGCGGAGTCACCTAGTGCAG

Reply:
1. 37000 fluorescence intensity (a.u.)
2. 40300 fluorescence intensity (a.u.)
3. 11400 fluorescence intensity (a.u.)

====

- TARGET_OR_SYSTEM: OsWOX13 (Oryza sativa, UniProt Q5QMM3 1-267)
- Sequence: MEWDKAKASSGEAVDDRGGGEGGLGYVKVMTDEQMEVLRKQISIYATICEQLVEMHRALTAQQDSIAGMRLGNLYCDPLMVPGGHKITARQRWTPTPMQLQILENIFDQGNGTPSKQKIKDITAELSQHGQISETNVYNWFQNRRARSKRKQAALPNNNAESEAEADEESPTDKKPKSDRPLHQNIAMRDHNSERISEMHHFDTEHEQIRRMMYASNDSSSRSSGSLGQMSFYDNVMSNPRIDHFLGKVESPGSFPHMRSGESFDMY
- METHOD_NOTES: protein-binding microarray (RPBM); PBS, 2% BSA, 51.3 ng/ul salmon testes DNA, 50 uM zinc acetate, 200 nM TF, 25 C, 1 h; high values mean tight binding
- DETAILS: protein: recombinant; tags: N-terminal polyhistidine and DsRed monomer fusion (pET32a); label: CyDye5-dUTP incorporated in the synthesized complementary strand; 3' TTTTT single-stranded linker to array surface; dsDNA, one strand shown
Whole data set: some 35,000 sequences, median “fluorescence intensity (a.u.)” near 10,000, cut for the highest 2% near 52,000. What follows is part of a selection rich in the highest values, with near analogues and random picks from the rest.
MEASURED_QUANTITY: binding signal

Worked cases, binding signal given:
[[record]]
biosequence = "ATTGATGAATGTTGACAAACCTGGTTTGATTTGGAGGGAACGGAGTCACCTAGTGCAG"
recorded_measurement = "23500 fluorescence intensity (a.u.)"

[[record]]
biosequence = "TTTTGATTGAAGACACACCTATTGTCGCGAATACTGCTAACGGAGTCACCTAGTGCAG"
recorded_measurement = "40500 fluorescence intensity (a.u.)"


For every listed record, write down its binding signal.
1. TTTAACATTTCCCCTTATAATTTTACCAAATCACTATGTTCGGAGTCACCTAGTGCAG
2. ATTTGATTTGATCACAACACATTAGCTTGGTTGCTCCATGCGGAGTCACCTAGTGCAG
3. AGTGATTATTTATTGGAGTACGATTGAGACCCTTGGTACGCGGAGTCACCTAGTGCAG

Reply:
4600 fluorescence intensity (a.u.)
41800 fluorescence intensity (a.u.)
33400 fluorescence intensity (a.u.)

====

Please provide measured binding signal for the entries that follow.
- TARGET_OR_SYSTEM: OsWOX13 (Oryza sativa, UniProt Q5QMM3 1-267)
- Sequence: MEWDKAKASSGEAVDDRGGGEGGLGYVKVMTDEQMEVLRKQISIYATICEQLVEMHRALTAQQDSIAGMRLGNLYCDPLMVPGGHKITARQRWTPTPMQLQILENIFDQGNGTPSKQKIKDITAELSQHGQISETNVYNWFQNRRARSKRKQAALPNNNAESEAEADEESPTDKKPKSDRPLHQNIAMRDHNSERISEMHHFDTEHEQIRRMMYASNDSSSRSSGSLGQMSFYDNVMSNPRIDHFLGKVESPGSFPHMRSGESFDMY
- METHOD_NOTES: protein-binding microarray (RPBM); PBS, 2% BSA, 51.3 ng/ul salmon testes DNA, 50 uM zinc acetate, 200 nM TF, 25 C, 1 h; high values mean tight binding
- DETAILS: protein: recombinant; tags: N-terminal polyhistidine and DsRed monomer fusion (pET32a); label: CyDye5-dUTP incorporated in the synthesized complementary strand; 3' TTTTT single-stranded linker to array surface; dsDNA, one strand shown
Whole data set: some 35,000 sequences, median “fluorescence intensity (a.u.)” near 10,000, cut for the highest 2% near 52,000. The sample as a whole holds a higher share of the highest values than the screen did.

For every listed record, write down its binding signal.
1. CCCGTACGTGTTACCTAATCATGATGGGATGCCATAATACCGGAGTCACCTAGTGCAG
2. AAATTCCGAATTTGATTCTTAATTAAGGCGAGCTATTCACCGGAGTCACCTAGTGCAG
3. TAGAATAAATTGATTTAATTAAATGTAACATTAAATATATCGGAGTCACCTAGTGCAG

Reply:
3570 fluorescence intensity (a.u.)
3490 fluorescence intensity (a.u.)
10100 fluorescence intensity (a.u.)

====

Please provide measured binding signal for the entries that follow.
- TARGET_OR_SYSTEM: OsWOX13 (Oryza sativa, UniProt Q5QMM3 1-267)
- Sequence: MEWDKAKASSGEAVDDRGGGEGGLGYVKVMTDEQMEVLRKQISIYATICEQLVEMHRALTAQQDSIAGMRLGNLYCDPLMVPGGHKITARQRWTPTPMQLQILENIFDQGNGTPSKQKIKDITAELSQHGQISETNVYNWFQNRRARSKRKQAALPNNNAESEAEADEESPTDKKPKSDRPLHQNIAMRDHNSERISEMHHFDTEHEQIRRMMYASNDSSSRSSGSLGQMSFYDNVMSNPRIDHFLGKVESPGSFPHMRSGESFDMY
- METHOD_NOTES: protein-binding microarray (RPBM); PBS, 2% BSA, 51.3 ng/ul salmon testes DNA, 50 uM zinc acetate, 200 nM TF, 25 C, 1 h; high values mean tight binding
- DETAILS: protein: recombinant; tags: N-terminal polyhistidine and DsRed monomer fusion (pET32a); label: CyDye5-dUTP incorporated in the synthesized complementary strand; 3' TTTTT single-stranded linker to array surface; dsDNA, one strand shown
The full ranking holds about 35,000 sequences; the median of “fluorescence intensity (a.u.)” is about 10,000, and the highest 2% start at about 52,000. For the sample, the highest values were picked, then their nearest neighbours and some sequences at random.

[[record]]
biosequence = "GACAGTTTGATTTCCTCTTGTGTTTATGCATTATTTTGTGCGGAGTCACCTAGTGCAG"
measured_quantity = "binding signal"
recorded_measurement = "3640 fluorescence intensity (a.u.)"

[[record]]
biosequence = "ACAGATTAATTAGGCTTAATATATTCATATCGCAGTTTACCGGAGTCACCTAGTGCAG"
measured_quantity = "binding signal"
recorded_measurement = "50500 fluorescence intensity (a.u.)"

[[record]]
biosequence = "GTAATTTATATTGAAATGCAATTACTTCCTCCGTTTCACCCGGAGTCACCTAGTGCAG"
measured_quantity = "binding signal"
recorded_measurement = "21800 fluorescence intensity (a.u.)"

[[record]]
biosequence = "ATAATTTGATCAAATTACATGTGATTTTGTGAAATTTACACGGAGTCACCTAGTGCAG"
measured_quantity = "binding signal"
recorded_measurement = "39700 fluorescence intensity (a.u.)"

[[record]]
biosequence = "CGGAATTAATCTGATTATGTGAGTGAATTGGCATTTTGAACGGAGTCACCTAGTGCAG"
measured_quantity = "binding signal"
recorded_measurement = "30700 fluorescence intensity (a.u.)"


For every listed record, write down its binding signal.
1. TAATTATTGAACACACTAATTAAGTATTACGATGCACCTCCGGAGTCACCTAGTGCAG
2. TCAAATAATTAGAAGGGGTGAGACTTCGAATCCAAGTCGTCGGAGTCACCTAGTGCAG
3. TATTCTGATTGGAACTTATGAGTCTTGAATTCTTGATTCTCGGAGTCACCTAGTGCAG

Reply:
6340 fluorescence intensity (a.u.)
14400 fluorescence intensity (a.u.)
39000 fluorescence intensity (a.u.)
